System Name: S1P1 (Homo sapiens (Human), UniProt P21453)
Sequence (P21453 whole entry, species assumed): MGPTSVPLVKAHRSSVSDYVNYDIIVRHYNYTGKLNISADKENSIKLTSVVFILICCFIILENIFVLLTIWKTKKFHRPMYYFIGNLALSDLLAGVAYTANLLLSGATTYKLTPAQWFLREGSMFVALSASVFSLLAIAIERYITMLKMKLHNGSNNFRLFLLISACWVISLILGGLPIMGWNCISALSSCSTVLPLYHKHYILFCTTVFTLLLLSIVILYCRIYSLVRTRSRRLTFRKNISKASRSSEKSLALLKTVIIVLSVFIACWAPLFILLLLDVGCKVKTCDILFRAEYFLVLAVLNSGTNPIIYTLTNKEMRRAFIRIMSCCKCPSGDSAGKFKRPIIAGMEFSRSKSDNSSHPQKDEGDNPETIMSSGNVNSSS
Test Description: 35S-GTPγS binding assay, S1P1 membranes
Assay type: biochemical
Experimental Context: membranes from CHO cells expressing S1P1; read-out: S1P1 GTPyS EC50
Description: Membranes were prepared from CHO cells expressing S1P1 or S1P3 for use in ligand and 355-GTPγS binding studies. […] Binding was performed for 60 min at room temperature on a shaker and bound radioactivity was measured on a PerkinElmer 1450 MicroBeta counter. Specific binding was calculated by subtracting remaining radioactivity in the presence of 1000-fold excess of unlabeled S1P. Binding data were analyzed using the GraphPad Prism program. […]
pEC50: −log10 of the molar value.
# binning rule on pEC50: label 0: < 6; label 1: ≥ 6 and < 7; label 2: ≥ 7

QUERY: Given `O=C(Nc1cccc2[nH]ccc12)c1cc(N(CC2CC2)C2CCCCC2)ncn1` , name the class its pEC50 places it in.
RESULT: label 2

QUERY: Given `CCCN(CC1CC1)c1cc(C(=O)Nc2ccc3c(cnn3CC(=O)N(C)C)c2)ncn1` , name the class its pEC50 places it in.
RESULT: label 0

Next:
QUERY: Given `CCCN(CC1CC1)c1cc(C(=O)Nc2ccc(CN(C)C)cc2C)ncn1` , name the class its pEC50 places it in.
RESULT: label 1

QUERY: Given `Cc1cc2[nH]ncc2cc1NC(=O)c1cc(N(C)C2CCCCC2)ncn1` , name the class its pEC50 places it in.
RESULT: label 1

QUERY: Given `COc1cc(NS(C)(=O)=O)ccc1NC(=O)c1cc(NC2CCCCC2)ncn1` , name the class its pEC50 places it in.
RESULT: label 1

QUERY: Given CCCN(CC1CC1)c1cc(C(=O)Nc2ccc(CC3COC(=O)N3)cc2)ncn1 (stereo not drawn) , name the class its pEC50 places it in.
RESULT: label 1
